Quick reference for melting point among some compounds

compound	melting point
COc1ccc(OC)c2c(Nc3cccc(Br)c3)c(C#N)cnc12	72 to 74 °C

Exercise: Form field: reported melting point of COc1c(F)c(F)c(N)c2c(=O)c(C(=O)O)cn(Cc3ccccc3)c12
Solution: 208 to 210 °C

Exercise: Form field: reported melting point of CC(=O)C(O)C1OC(n2cc(Br)c(=O)[nH]c2=O)CC1N=[N+]=[N-] (configuration not stated)
Solution: 112 to 114 °C

---

value-kind: melting point

compound	melting point
COCN1C(=O)COc2ccc([N+](=O)[O-])cc21	120 to 122 °C
Fc1ccc(F)c(COc2cccnc2NC(=S)Nc2ccc(Cl)cc2)c1F	174 to 176 °C
CCc1cc(NCc2ccc(-n3cccc3-c3nnn[nH]3)cc2)n2nccc2n1	129 to 130 °C
CN1CC(=O)N(c2cc(Cl)nc(Cl)c2)C1=O	134 °C

Exercise: Form field: reported melting point of CC(C)(C)C(=O)SC1CCN(C(C(=O)C2CC2)c2ccccc2F)CC1 (configuration not stated)
Solution: 88 to 89 °C

Exercise: Form field: reported melting point of COC(=O)c1nn(S(=O)(=O)c2ccc(C)cc2)c2ccccc12
Solution: 163 to 165 °C

Exercise: Form field: reported melting point of O=C1c2cc3nnn(Cc4cnccn4)c(=O)c3cc2OC2CCCN12 (configuration not stated)
Solution: 229 to 231 °C

Exercise: Form field: reported melting point of CC(=Cc1ccc2c(c1)Sc1cc(C=C(C)c3ccccc3)ccc1N2C)c1ccccc1
Solution: 189 to 191 °C

Exercise: Form field: reported melting point of O=C1CN(N=Cc2ncc(-c3ccc(Cl)cc3)o2)C(=O)N1
Solution: 290 to 294 °C

Exercise: Form field: reported melting point of O=C(c1ccccc1)C1CNC(=S)C1 (configuration not stated)
Solution: 110 to 112 °C

Exercise: Form field: reported melting point of CNC(=O)C1=CC(CF)(CF)Oc2ccc(Cl)cc21
Solution: 175 to 176 °C

Exercise: Form field: reported melting point of Cc1cc([N+](=O)[O-])c(NC(C)C(=O)N(C)OS(C)(=O)=O)c([N+](=O)[O-])c1 (configuration not stated)
Solution: 145 °C

Exercise: Form field: reported melting point of CC1(C)CC(N=[N+]=[N-])c2cc(C#N)ccc2O1 (configuration not stated)
Solution: 63 to 64 °C

---

Quick reference for melting point among some compounds

Here are 3 compounds together with their reported answers.
compound	result
CCOC(=O)C1=C(C)NC2=C(C(=O)OC2)C1c1ccccc1OC (centres undefined)	219 to 220 °C
CN(C)C(=O)c1ccc(F)c2c1CC(N(CCCc1c[nH]c3ccc(F)cc13)C1CCC1)CO2 (centres undefined)	126 °C
CCOc1cc(OCc2ccc(CN(C)C)o2)cc2c1C(=O)N(COC(=O)c1c(Cl)cccc1Cl)S2(=O)=O	157 to 158 °C

Exercise: Form field: reported melting point of CCCC(=O)c1cnc2c(OCCN(C)C)cccc2c1Nc1ccccc1C
Solution: 88 to 90 °C

Exercise: Form field: reported melting point of CC=NOCc1nc2c(N)nc3ccccc3c2n1CC(C)C
Solution: 155 to 156 °C

Exercise: Form field: reported melting point of COc1cc(C=C(Cl)Cl)nc(N)n1
Solution: 90 to 91 °C

Exercise: Form field: reported melting point of Cc1ccc(Nc2c(C)cc(Cl)cc2Cl)c(CC(=O)N(C)C)c1
Solution: 119 to 124 °C

Exercise: Form field: reported melting point of CC(=O)Oc1ccc(C(=O)Oc2ccc(C(=O)O)cc2)cc1C12CC3CC(CC(C3)C1)C2
Solution: 264 to 265 °C

Exercise: Form field: reported melting point of CCN(c1ccc([N+](=O)[O-])cc1[N+](=O)[O-])S(=O)(=O)c1ccc(C)cc1
Solution: 135 to 136 °C

---

value-kind: melting point

Here are 8 compounds together with their reported answers.
compound	value-kind	result
O=C(Nc1ccccc1)N(CCCn1ccnc1)C1=Nc2cccc3cccc1c23	melting point	240 to 250 °C
O=C(Nc1ccccc1S(=O)(=O)F)NC1CCCCC1	melting point	177 °C
O=c1[nH]c2ccccc2c2nc(-c3ccccc3)cn12	melting point	278 to 280 °C
CN(C(=O)c1cc(=O)n(C)c2ccc(C(=O)c3ccc(Cl)cc3)cc12)c1cccc(Cl)c1	melting point	184 °C
CC(=O)OCCSCCOc1ccc(CCC(=O)O)cc1	melting point	48 to 49 °C
CC1=C(C#N)S(=O)(=O)c2ccc(F)cc2N1	melting point	261 to 263 °C
OC1(c2cccc(C(F)(F)F)c2)CCN(CCc2ccc3ncccc3c2)CC1	melting point	140 to 142 °C
CN(C)C1CCC(Nc2ncnc3sc4c(c23)CCC4)CC1 (centres undefined)	melting point	97 to 98 °C

Exercise: Form field: reported melting point of CC(C)(C)OC(=O)N[C@@H](COC(=O)C(C)(C)C)Cc1ccccc1
Solution: 59 to 60 °C

Exercise: Form field: reported melting point of COC1CCCn2c1nc(C)c(CCN1CCC(c3noc4cc(F)ccc34)CC1)c2=O (centres undefined)
Solution: 131 °C

Exercise: Form field: reported melting point of C[Si](C)(C)C#Cc1cnn2c(C(F)(F)F)cc(-c3ccc(Cl)cc3)nc12
Solution: 198 °C

Exercise: Form field: reported melting point of Cc1cc(C)c2nc(NC3CCN(CCO)CC3)n(Cc3nc(C)ccc3O)c2c1
Solution: 177 °C

Exercise: Form field: reported melting point of CN1CCN(C2=Nc3cc(Br)ccc3-n3ccc4cccc2c43)CC1
Solution: 164 to 166 °C

Exercise: Form field: reported melting point of Cc1cc2c(cc1-c1ccc(O)c(C=O)c1)C(C)(C)CCC2(C)C
Solution: 138 to 139 °C

Exercise: Form field: reported melting point of O=C(O)CC1CCC(N2CCN(c3ccncc3)CC2)CC1 (centres undefined)
Solution: 225 to 227 °C

Exercise: Form field: reported melting point of NC1=NCC(COc2ccccc2[N+](=O)[O-])O1 (centres undefined)
Solution: 166 °C

Exercise: Form field: reported melting point of O=C(NCCCCC(NC(=O)OCC1c2ccccc2-c2ccccc21)C(=O)Oc1c(F)c(F)c(F)c(F)c1F)OCC1c2ccccc2Oc2ccccc21 (centres undefined)
Solution: 150 to 152 °C

Exercise: Form field: reported melting point of COc1ccc(C(=O)CC2CCCC2)c(Cl)c1Cl
Solution: 60 to 61.5 °C

Exercise: Form field: reported melting point of Cc1ccccc1N=C=Nc1ccccc1C
Solution: 3.5 to 4.5 °C

Exercise: Form field: reported melting point of COC12CC(CO)CN(C)C1CC1CNc3cccc2c31 (centres undefined)
Solution: 134 to 138 °C

---

value-kind: melting point

Here are 4 compounds together with their reported answers.
compound	result
CCc1ccccc1-c1nc(-c2cccc(OC)c2)n[nH]1	72 to 75 °C
CC(=O)Oc1cc([N+](=O)[O-])ccc1CN1C(=O)c2ccccc2C1=O	175 to 178 °C
O=C(CO)c1ccc(C2CCCCC2)cc1	104 to 106 °C
N#CC1=C(c2ccccc2)Nc2n[nH]cc2C1c1ccccc1[N+](=O)[O-] (stereo not given)	221 °C

Could you now consider this next compound?
Exercise: Form field: reported melting point of COc1ccc(NC(=NC#N)NC(NC(=O)c2ccc(Cl)cc2)C(C)(Cl)Cl)c(OC)n1 (stereo not given)
Solution: 162 to 163 °C

---

Quick reference for melting point among some molecules

Here are 5 molecules together with their reported answers.
molecule	melting point
CC(=O)Oc1ccc(C(=O)N2CCN(CC(C)(C)S)CC2)cc1	121 °C
CC(=O)NCCNC(=O)c1ccccn1	96 to 99 °C
Cn1c(CNCC(C)(C)O)cc2cc(NC(=O)c3ccc(OCC4CC4)cc3)ccc21	188 to 189 °C
O=C(CC(=O)c1ccccc1Cl)Nc1ccccc1	142 °C
O=C1CC2CCc3ccc(Cl)cc3C2=NN1c1ccccc1 (stereo unspecified)	120 to 122 °C

Exercise: Form field: reported melting point of O=C(CCC(=O)N1CCC(c2ccc(Cl)cc2)CC1)c1ccc2c(c1)CCN(CC(=O)c1ccccc1)CC2
Solution: 108 to 109 °C

Exercise: Form field: reported melting point of CNc1nc2ccccc2c(-c2ccccc2)c1C(=O)N(C)Cc1cc(C(F)(F)F)cc(C(F)(F)F)c1
Solution: 173 to 174 °C

Exercise: Form field: reported melting point of Cc1cc(F)ccc1-c1ccc(S(=O)(=O)N2c3ccccc3CC2C(=O)NCCOc2ccc(C(=O)OC(C)(C)C)cc2)cc1 (stereo unspecified)
Solution: 84 °C

Exercise: Form field: reported melting point of COC(=O)NC1(Cl)C=CC=CN1CC(COc1cccc2ccccc12)OC(=O)OC (stereo unspecified)
Solution: 133 to 135 °C

Exercise: Form field: reported melting point of Cc1cc(C)n(-c2nc(-c3ccc(Cl)cc3)c(CCC(=O)O)o2)n1
Solution: 201 to 202 °C
